Assay: viability loss of mouse 3T3 cells – cell-based, cherry-pick, single point, set 2, cytotoxicity control, confirmation (AID 651744);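 note: 0% = median of neutral control wells and 100% = median of positive control wells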
Settings: NIH/3T3 viability, CellTiter-Glo ATP luminescence, 90 h; at 24.9 µM
Among all 5,600 compounds or so, about 3,100 (55%) were called active. Roughly 3% stayed inconclusive and do not appear here.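 Rule for the calls: active = mean loss of cell viability signal at or above a set limit, and enough replicates individually reaching it; inconclusive = meets only the mean limit or only the replicate share; inactive = meets neither condition.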 The set was probably picked from earlier hits. Only a sample is shown.
Select the correct class. Options are TRUE = active, FALSE = inactive and nothing else.

Worked set:
smiles entry: CC(C)CC#Cc1ccc2c(c1)O[C@H](CN(C)Cc1cccnc1)[C@H](C)CN([C@@H](C)CO)S2(=O)=O
classification: TRUE
--
smiles entry: C[C@H](CO)N1C[C@H](C)[C@@H](CN(C)Cc2ccncc2)Oc2cc(Br)ccc2S1(=O)=O
classification: TRUE
--
smiles entry: Cc1cc(C(=O)Nc2cccc3c2O[C@@H](CN(C)Cc2ccc(C(=O)Nc4ccccc4N)cc2)[C@H](C)CN([C@@H](C)CO)C3=O)n(C)n1
classification: FALSE

Now let's try a different one.
IN: // param item: `C[C@H]1CN([C@@H](C)CO)C(=O)c2cccc(NS(=O)(=O)c3cn(C)cn3)c2O[C@@H]1CN(C)CC1CCCCC1` ; yields the recorded call
OUT: FALSE

====

Assay: viability loss of mouse 3T3 cells – cell-based, cherry-pick, single point, set 2, cytotoxicity control, confirmation (AID 651744);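 note: 0% = median of neutral control wells and 100% = median of positive control wells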
Settings: NIH/3T3 viability, CellTiter-Glo ATP luminescence, 90 h; at 24.9 µM; stronger effect = higher value
Hit rate of the full screen: of about 5,600 compounds, about 3,100 (55%) were called active. Another 3% or so got no clear call; they are omitted. The set was probably picked from earlier hits. A selection follows.
measurement name: inhibition (%)
State the answer as a number, implicitly in %.

smiles entry: Cc1ccc(-c2ccc([C@H]3[C@H](CO)N4CCCCN(Cc5cncnc5)C[C@@H]34)cc2)cc1
inhibition, %: 64.8
//
smiles entry: O=C(c1cccc(F)c1)N1CCCCN2[C@H](CO)[C@H](c3ccc(-c4ccncc4)cc3)[C@H]2C1
inhibition, %: -0.739
//
smiles entry: O=C(c1ccccc1F)N1C[C@H]2[C@@H](c3ccccc31)[C@@H](CO)N2C(=O)c1ccc(F)cc1
inhibition, %: 9.61
//
smiles entry: CCCNC(=O)N(C)C[C@@H]1Oc2ncc(C#Cc3ccccc3F)cc2C(=O)N([C@@H](C)CO)C[C@H]1C
inhibition, %: 41.6
//
smiles entry: Cc1cccc(-c2ccc([C@@H]3[C@H](CO)N4CCCCN(C(=O)c5ccc6c(c5)OCO6)C[C@@H]34)cc2)c1
inhibition, %: 105
//
smiles entry: Cc1ccccc1-c1ccc([C@@H]2[C@H](CO)N3CCCCN(S(=O)(=O)c4ccc(F)cc4)C[C@@H]23)cc1
inhibition, %: 102

IN: Which inhibition reading was recorded for the molecule `OC[C@@H]1[C@H](c2ccc(C#CC3(O)CCCC3)cc2)[C@H]2CN(Cc3cncnc3)CCCCN12` ?
OUT: 16.8

IN: Which measured inhibition value corresponds to `O=C(Nc1ccc(Cl)cc1)N[C@@H]1CC[C@@H](CCNC(=O)c2ccccc2F)O[C@H]1CO` ?
OUT: 4.33

IN: Consider the molecule `O=S(=O)(Cc1ccccc1)N1CCCCN2[C@@H](CO)[C@H](c3ccc(-c4ccccc4)cc3)[C@@H]2C1` and give its measured inhibition.
OUT: 106

IN: Consider the molecule shown here: `COc1ccc(-c2ccc([C@H]3[C@H]4CN(C(=O)c5ccc6c(c5)OCO6)CCCCN4[C@H]3CO)cc2)cc1` What is its recorded inhibition?
OUT: 67.5
